Target: UniProt P08909
Sequence (P08909 whole entry): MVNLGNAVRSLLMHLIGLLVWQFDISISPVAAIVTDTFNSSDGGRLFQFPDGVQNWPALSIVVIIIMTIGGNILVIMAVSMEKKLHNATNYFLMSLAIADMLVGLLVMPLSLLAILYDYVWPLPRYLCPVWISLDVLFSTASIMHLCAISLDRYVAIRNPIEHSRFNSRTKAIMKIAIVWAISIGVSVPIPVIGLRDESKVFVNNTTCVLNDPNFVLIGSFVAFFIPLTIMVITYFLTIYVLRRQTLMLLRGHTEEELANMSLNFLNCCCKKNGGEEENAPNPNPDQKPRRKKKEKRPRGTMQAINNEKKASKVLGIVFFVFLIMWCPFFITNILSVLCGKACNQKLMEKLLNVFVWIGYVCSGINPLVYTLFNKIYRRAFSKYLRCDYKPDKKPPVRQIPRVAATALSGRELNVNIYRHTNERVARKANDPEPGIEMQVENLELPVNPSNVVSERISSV
Strictly below 2 nM in Ki: fulfilled. Otherwise: not fulfilled.

- COc1cccc2c1N1CCN(C)CC1c1ccccc1C2 (racemic): fulfilled
- COc1cccc2c1N1CCN(C)C[C@H]1c1ccccc1C2: fulfilled
- CN1CCN2c3ncccc3Cc3ccccc3C2C1 (racemic): not fulfilled

Query: Take the compound COc1cccc2c1N1CCN(C)C[C@@H]1c1ccccc1C2 and say whether its Ki is less than 2 nM.
Reply: fulfilled

* * *

Target: D(3) dopamine receptor (Homo sapiens)
Sequence (P35462 whole entry): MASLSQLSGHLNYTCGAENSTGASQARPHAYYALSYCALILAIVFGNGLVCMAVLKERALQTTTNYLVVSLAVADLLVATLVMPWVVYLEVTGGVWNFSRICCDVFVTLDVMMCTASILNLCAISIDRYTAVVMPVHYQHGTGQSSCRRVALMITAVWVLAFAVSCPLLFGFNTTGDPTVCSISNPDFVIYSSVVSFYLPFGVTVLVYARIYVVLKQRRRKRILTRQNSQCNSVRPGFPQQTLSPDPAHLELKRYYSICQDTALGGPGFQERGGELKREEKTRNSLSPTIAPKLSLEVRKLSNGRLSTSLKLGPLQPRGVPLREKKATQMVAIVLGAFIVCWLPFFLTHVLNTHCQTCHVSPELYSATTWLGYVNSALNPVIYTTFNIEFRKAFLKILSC
Recorded pKi by entry
Note on pKi: it is the negative log10 of concentration, concentration in mol/L.

• COc1cccc2c1N1CCN(C)C[C@@H]1c1ccccc1C2 = 5.45
• COc1cccc2c1N1CCN(C)C[C@H]1c1ccccc1C2 = 7.00

Pending compound:
COc1cccc2c1N1CCN(C)CC1c1ccccc1C2 (racemic) tested on D(3) dopamine receptor (Homo sapiens) gave pKi: 6.59

* * *

// reported IC50 for each item listed
Target: Norepinephrine transporter (Rattus norvegicus, UniProt Q9WTR4)
Sequence (Q9WTR4 whole entry): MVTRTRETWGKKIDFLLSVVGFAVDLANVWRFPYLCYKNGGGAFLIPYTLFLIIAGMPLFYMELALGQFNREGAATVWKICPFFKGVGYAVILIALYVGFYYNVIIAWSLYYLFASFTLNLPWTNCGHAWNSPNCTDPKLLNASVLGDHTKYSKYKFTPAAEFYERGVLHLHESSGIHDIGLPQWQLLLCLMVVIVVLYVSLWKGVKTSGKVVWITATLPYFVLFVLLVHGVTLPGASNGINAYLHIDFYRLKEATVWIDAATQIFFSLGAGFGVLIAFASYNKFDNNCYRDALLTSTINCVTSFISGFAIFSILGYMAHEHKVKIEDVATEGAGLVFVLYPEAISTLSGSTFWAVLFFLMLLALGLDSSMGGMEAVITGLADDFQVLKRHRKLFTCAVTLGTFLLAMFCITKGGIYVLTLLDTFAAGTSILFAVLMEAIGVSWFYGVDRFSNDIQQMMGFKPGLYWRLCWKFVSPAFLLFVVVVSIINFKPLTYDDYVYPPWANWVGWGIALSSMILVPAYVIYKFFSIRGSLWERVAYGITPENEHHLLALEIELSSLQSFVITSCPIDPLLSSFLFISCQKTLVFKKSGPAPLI
Test: The binding affinity at the Norepinephrine transporter reuptake sites determined using competition binding assay
Your answer is read as µM, so omit the unit and give the number.

- COc1cccc2c1N1CCN(C)C[C@@H]1c1ccccc1C2: 1.24
- CN1CCN2c3ncccc3Cc3ccccc3C2C1 (racemic): 0.26
- COc1cccc2c1N1CCN(C)CC1c1ccccc1C2 (racemic): 1.78
- CN1CCN2c3ccccc3Cc3ccccc3C2C1 (racemic): 0.022

Turning to the following compound.
Noted IC50 for COc1cccc2c1N1CCN(C)C[C@H]1c1ccccc1C2 , tested on Norepinephrine transporter (Rattus norvegicus, UniProt Q9WTR4): 2.86

* * *

Target: 5-hydroxytryptamine receptor 1A (Homo sapiens, UniProt P08908)
Sequence (P08908 whole entry): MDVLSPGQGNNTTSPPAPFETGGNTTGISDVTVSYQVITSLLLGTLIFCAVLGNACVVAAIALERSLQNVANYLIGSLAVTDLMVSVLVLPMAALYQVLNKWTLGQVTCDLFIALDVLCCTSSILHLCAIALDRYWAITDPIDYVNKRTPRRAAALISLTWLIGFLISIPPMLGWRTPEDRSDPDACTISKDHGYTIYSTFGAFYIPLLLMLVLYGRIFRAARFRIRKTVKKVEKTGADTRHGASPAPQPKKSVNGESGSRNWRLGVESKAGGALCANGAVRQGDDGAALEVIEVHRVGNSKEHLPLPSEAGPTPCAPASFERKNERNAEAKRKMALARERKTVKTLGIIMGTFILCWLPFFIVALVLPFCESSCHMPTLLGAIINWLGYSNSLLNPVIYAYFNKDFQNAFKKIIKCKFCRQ
Test: The binding affinity at the 5-hydroxytryptamine 1A receptor determined using [3H]5-CT
Ki by entry:
The answer is to be given in nM; state only the numeric part.

These recorded examples may help you get a feel for the data.
• COc1cccc2c1N1CCN(C)CC1c1ccccc1C2 (racemic) = 345
• COc1cccc2c1N1CCN(C)C[C@H]1c1ccccc1C2 = 255

The value of Ki measured for the molecule COc1cccc2c1N1CCN(C)C[C@@H]1c1ccccc1C2 turned out to be 800

* * *

Biological target: D(4) dopamine receptor (Homo sapiens)
Sequence (P21917 whole entry): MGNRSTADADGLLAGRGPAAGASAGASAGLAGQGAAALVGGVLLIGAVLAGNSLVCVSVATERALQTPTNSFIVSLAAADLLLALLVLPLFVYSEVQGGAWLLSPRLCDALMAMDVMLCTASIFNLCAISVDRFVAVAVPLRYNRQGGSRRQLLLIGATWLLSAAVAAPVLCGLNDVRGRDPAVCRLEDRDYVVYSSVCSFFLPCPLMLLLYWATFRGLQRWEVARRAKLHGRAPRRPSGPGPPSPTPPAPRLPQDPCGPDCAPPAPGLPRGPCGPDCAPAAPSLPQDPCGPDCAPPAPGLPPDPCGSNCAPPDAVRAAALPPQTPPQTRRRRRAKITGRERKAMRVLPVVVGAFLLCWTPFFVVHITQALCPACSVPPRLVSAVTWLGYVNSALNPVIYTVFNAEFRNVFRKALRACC
Test: The binding affinity at the Dopamine receptor D4 determined using [3H]YM-09151-2
measured-attribute: Ki (nM)
Quick note: give the figure in nM, leave out the unit.

Some solved cases for reference:
* COc1cccc2c1N1CCN(C)C[C@@H]1c1ccccc1C2 | 160
* COc1cccc2c1N1CCN(C)C[C@H]1c1ccccc1C2 | 47

Proceed to the following item.
Assay D(4) dopamine receptor (Homo sapiens), sample COc1cccc2c1N1CCN(C)CC1c1ccccc1C2 (racemic) , Ki read: 92
